biological target: TF-VIIa (Homo sapiens); construct: 2nM recombinant human factor VIIa; purchased American Diagnostica, Greenwich CT; host or cells: soluble TF made in house in E. coli; assay: TF-VIIa Assay; format: biochemical; conditions: cells given as a plain number (IC50); read-out: IC50 or % Inhibition TF-VIIa (30 µM)
Sequence (P08709 213-466 limits assumed): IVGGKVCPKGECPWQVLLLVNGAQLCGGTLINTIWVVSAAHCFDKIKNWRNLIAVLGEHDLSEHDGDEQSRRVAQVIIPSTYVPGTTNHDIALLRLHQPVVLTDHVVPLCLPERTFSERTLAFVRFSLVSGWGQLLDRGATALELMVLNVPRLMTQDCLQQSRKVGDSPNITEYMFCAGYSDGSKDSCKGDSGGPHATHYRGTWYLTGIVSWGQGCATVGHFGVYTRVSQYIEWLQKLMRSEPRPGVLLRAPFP
Sequence (P08709 61-212 limits assumed): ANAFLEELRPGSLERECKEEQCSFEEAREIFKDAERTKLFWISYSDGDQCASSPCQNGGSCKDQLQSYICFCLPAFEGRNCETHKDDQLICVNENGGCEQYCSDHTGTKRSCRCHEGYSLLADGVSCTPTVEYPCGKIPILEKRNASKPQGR
Sequence (P13726 33-251 partner limits assumed): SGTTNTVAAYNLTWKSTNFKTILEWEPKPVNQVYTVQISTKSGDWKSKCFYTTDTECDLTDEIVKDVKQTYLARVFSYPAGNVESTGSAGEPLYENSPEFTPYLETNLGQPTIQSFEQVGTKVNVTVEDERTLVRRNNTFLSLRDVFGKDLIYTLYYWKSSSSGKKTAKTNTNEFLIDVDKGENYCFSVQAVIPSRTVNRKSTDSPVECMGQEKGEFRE
pIC50: −log10 of the molar value.
Quantity Kind: pIC50

Consider the reported pIC50 for these compounds:
Cc1cccc(-c2cnc(NCCc3ccccc3)c(=O)n2CC(=O)NCc2ccc(C(=N)N)cc2)c1 [compound 85] | 6.06
CN(C)CCNc1nc(Cl)c(-c2ccccc2)n(CC(=O)NCc2ccc(C(=N)N)cc2)c1=O [1512-15] | 4.68
Cc1ccccc1-c1c(Cl)nc(NCCc2ccccc2)c(=O)n1CC(=O)NCc1ccc(C(=N)N)cc1 [compound 78] | 6.37
N=C(N)c1ccc(CNC(=O)Cn2c(-c3cccc(N)c3)cnc(NC3CCC3)c2=O)cc1 [compound 92] | 7.28
Cc1c(N)cccc1-c1cnc(NC(C)C)c(=O)n1CC(=O)NCc1ccc(C(=N)N)cc1 [compound 98] | 7.05

P. N=C(N)c1ccc(CNC(=O)Cn2c(-c3ccccc3)c(Cl)nc(NCc3cc(F)cc(F)c3)c2=O)cc1 [1512-39]
Q. N=C(N)NCCC[C@H](NC(=O)Cn1c(CCc2ccccc2)cnc(NCCc2ccccc2)c1=O)C(=O)c1nccs1 [Example 8]
R. N=C(N)c1ccc(CNC(=O)Cn2c(-c3cccc(N)c3)c(Cl)nc(NCCc3ccccc3)c2=O)cc1 [compound 86]
S. CC(C)Nc1nc(Cl)c(-c2cccc(C(=O)O)c2)n(CC(=O)NCc2ccc(C(=N)N)cc2)c1=O [Example 65]
T. N=C(N)c1ccc(CNC(=O)Cn2c(-c3ccccc3)c(Cl)nc(NC3CCCCCC3)c2=O)cc1 [1522-36]
// query Arrange the 5 entries by pIC50 so the values rise. Lab note: record answer as labels in requested order.
// result P, Q, T, S, R

P. N=C(N)c1ccc(CNC(=O)Cn2c(-c3cccc(C(F)(F)F)c3)c(Cl)nc(NCCc3ccccc3)c2=O)cc1 [1515-25]
Q. CC(C)N(C)c1nc(Cl)c(-c2ccccc2)n(CC(=O)NCc2ccc(C(=N)N)cc2)c1=O [1517-31]
// query Between the two listed entries P and Q , which has its pIC50 at the higher number? Label of pick, please.
// result P
(P: 5.54, Q: 5.04)

I. CC(C)NC(=O)Nc1ncc(-c2ccccc2)n(CC(=O)NCc2ccc(C(=N)N)cc2)c1=O [Example 109]
II. N=C(N)c1ccc(CNC(=O)Cn2c(-c3cccc([N+](=O)[O-])c3)c(Cl)nc(NCCc3ccccc3)c2=O)cc1 [compound 77]
// query Sort I and II by pIC50 descending and give the first. Output the label that corresponds to your choice.
// result II
